Entries and their ΔTm values follow.
# Test system: FAM-TTA45-TAMRA (DNA, G4) GGGTTAGGGTTAGGGTTAGGGTTAGGGTTAGGGTTAGGGTTAGGG
# method: FRET melting
# test.parameters: 100 mM K+ (KCl) plus 10 mM potassium phosphate; pH 7.0; 20 µM compound, 0.5 µM DNA
Kindly answer with a numeric value in °C, unit omitted.

Recorded results for 4 compounds are shown here.
c1cc2c(cc1Cn1cc3c(-c4ccc5c(c4)OCO5)nnc-3c3cc4c(cc31)OCO4)OCO2 | 11.56
COc1ccc(-c2nnc3c4cc5c(cc4n(Cc4ccccc4)cc2-3)OCO5)cc1 [BMPQ-6] | 11.68
COc1ccc2c(c1)c1nnc(-c3ccc(F)cc3)c-1cn2Cc1ccccc1 | 8.38
FC(F)(F)c1ccc(Cn2cc3c(-c4ccc5c(c4)OCO5)nnc-3c3cc4c(cc32)OCO4)cc1 [BMPQ-2] | 12.59

[Q] Find the recorded ΔTm belonging to Cc1ccc(Cn2cc3c(-c4ccc5c(c4)OCO5)nnc-3c3ccccc32)cc1 [BMPQ-3] and report it.
[A] 10.28

* * *

# Test system: FAM-TTA45-TAMRA (DNA, G4) GGGTTAGGGTTAGGGTTAGGGTTAGGGTTAGGGTTAGGGTTAGGG
# method: FRET melting
# test.parameters: 100 mM K+ (KCl) plus 10 mM potassium phosphate; pH 7.0; 50 µM compound, 0.5 µM DNA
Entries and their ΔTm values follow.
Kindly answer with a numeric value in °C, unit omitted.

Recorded results for 6 compounds are shown here.
CCC(Sc1nc2cc3c(cc2c(=O)n1Cc1ccc(C(=O)NCc2ccc4c(c2)OCO4)cc1)OCO3)C(=O)N1CCOCC1 (centres unmarked) [Compound 12] | 5.11
Cc1cc(C)n(-c2nnc3c4ccccc4n(CC(=O)NCCc4nc5ccccc5[nH]4)c3n2)n1 | 2.17
Oc1ccccc1/C=N/Nc1nnc2c3ccccc3n(Cc3ccccc3)c2n1 | 1.53
CCCNC(=O)Cn1nc(-c2ccc(CC)cc2)c2cnc3cc4c(cc3c21)OCCO4 | 1.12
CN1CCN(CCCSc2nnc3c(n2)[nH]c2ccccc23)CC1 [Compound 3] | 9.04
COc1cc2c(-c3ccccc3[N+](=O)[O-])nc3c(c(-c4ccccc4)nn3-c3ccccc3)c2cc1OC | 3.85

[Q] Find the recorded ΔTm belonging to C(=N\Nc1nnc2c(n1)[nH]c1ccccc12)/c1c2ccccc2cc2ccccc12 and report it.
[A] 1.54

[Q] What do you have for CN(Cc1ccc2c(c1)OCO2)C(=O)c1nn(C)c2c1CN(C(=O)C1=NOC(c3cccs3)C1)CC2 (centres unmarked) ?
[A] 0.70

* * *

# System: FAM-TTA45-TAMRA (DNA, G4) GGGTTAGGGTTAGGGTTAGGGTTAGGGTTAGGGTTAGGGTTAGGG
# method: FRET melting
# test.parameters: 100 mM K+ (KCl) plus 10 mM potassium phosphate; pH 7.0; 20 µM compound, 0.5 µM DNA
measured.parameter: ΔTm (°C)
Kindly answer with a numeric value in °C, unit omitted.

Recorded results for 3 compounds are shown here.
Cc1ccc2c(c1)c1nnc(-c3ccc(F)cc3)c-1cn2Cc1ccccc1 | 6.43
Fc1ccc(-c2nnc3c4cc5c(cc4n(Cc4ccccc4F)cc2-3)OCCO5)cc1 | 10.42
Clc1ccc(-n2cc3c(-c4ccccc4)nnc-3c3ccccc32)cc1 | 2.54

// moving on: another record for ΔTm
[Q] Find the recorded ΔTm belonging to COc1cccc(Cn2cc3c(-c4ccc5c(c4)OCO5)nnc-3c3cc4c(cc32)OCO4)c1 and report it.
[A] 13.40

The values you see were collected from paper PMC7672424.
